- System: Staphylococcus aureus ATCC 29213, CCM 4223
- protocol.details: Antibacterial microdilution broth method, S. aureus
- Assay type: cell-based
- condition.label: 48 h incubation, read-out: MIC SA 48 h
quantity.kind: MIC

Answered cases to consult:
Reported MIC, molecule O=C(O)c1ccc(N=Cc2ccc([N+](=O)[O-])o2)cc1 [1r] : ____ 62.5 µM

Reported MIC, molecule O=C(O)c1ccc(N=Cc2ccc(O)cc2)cc1 [1t] : ____ > 500 µM

Reported MIC, molecule O=C(O)c1ccc(N=Cc2cc(F)ccc2O)cc1 [1b] : ____ > 500 µM

Reported MIC, molecule COc1ccc(O)c(C=Nc2ccc(C(=O)O)cc2)c1 [1h] : ____ > 500 µM

Reported MIC, molecule O=C(O)c1ccc(N=Cc2cc(Cl)cc(Br)c2O)cc1 [1o] : ____ 15.6 µM

Reported MIC, molecule Nc1ccc(C(=O)O)cc1 [PABA 1, 4-aminobenzoic acid] : ____ > 500 µM

Further cases:
Reported MIC, molecule O=C(O)c1ccc(NCc2ccccc2O)cc1 [1u, 4-[(2-Hydroxybenzyl)amino]benzoic acid] : ____ > 500 µM

Reported MIC, molecule O=C(O)c1ccc(N=Cc2cc(Br)ccc2O)cc1 [1d] : ____ > 250 µM

All values here come from paper PMC7023430.
